Source of measurements: PubChem BioAssay AID1963860

Test system: CN0375-F725-PDC KRAS spheroid viability
ASSAY: Anticancer human tumor CN0375-F725-PDC patient-derived colon carcinoma cell line growth inhibition [KRAS2]
ASSAY_SETUP: second compound 0.316 µM; first compound 3.16 µM; stronger effect = lower value; spheroids with HUVEC and MSC
We begin with a simple list: items and their reported viability, T/C.
Write the value in % as a bare number.

Sample answers from the record:
COc1cc2nccc(Oc3ccc(NC(=O)C4(C(=O)Nc5ccc(F)cc5)CC4)cc3)c2cc1OC + C=CC(=O)N1CCN(c2nc(OCC3CCCN3C)nc3c2CCN(c2cccc4cccc(C)c24)C3)CC1CC#N = 56.9
CC1COCCN1c1cc(-c2ccnn2C)c2ccnc(-c3ccn[nH]3)c2n1 (stereo not drawn) + C=CC(=O)N1CCN(c2nc(=O)n(-c3c(C)ccnc3C(C)C)c3nc(-c4c(O)cccc4F)c(F)cc23)C(C)C1 = 52.6

Switching to the query record.
Ask: Find the measured viability, T/C of CC(C)NCC(C(=O)N1CCN(c2ncnc3c2C(C)CC3O)CC1)c1ccc(Cl)cc1 (stereo not drawn) + CC1OCC2(CCN(c3cnc(Sc4ccnc(N)c4Cl)c(N)n3)CC2)C1N with CN0375-F725-PDC KRAS spheroid viability as test system.
Result: 81.6

====

Test system: CN0375-F725-PDC KRAS spheroid viability
ASSAY: Anticancer human tumor CN0375-F725-PDC cell line growth inhibition [KRAS2];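 note: spheroids exposed to agents for 7 days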
ASSAY_SETUP: second compound 0.316 µM; first compound 0.1 µM; stronger effect = lower value; spheroids with HUVEC and MSC
RESULT_TYPE: viability, T/C (%)
Write the value in % as a bare number.

COC(=O)c1ccc2c(C(=Nc3ccc(N(C)C(=O)CN4CCN(C)CC4)cc3)c3ccccc3)c(O)[nH]c2c1 + C=CC(=O)N1CCN(c2nc(OCC3CCCN3C)nc3c2CCN(c2cccc4cccc(C)c24)C3)CC1CC#N = 100
O=C(c1cc(Cc2n[nH]c(=O)c3ccccc23)ccc1F)N1CCN(C(=O)C2CC2)CC1 + C=CC(=O)N1CCN(c2nc(OCC3CCCN3C)nc3c2CCN(c2cccc4cccc(C)c24)C3)CC1CC#N = 107
COc1cc2nccc(Oc3ccc(NC(=O)C4(C(=O)Nc5ccc(F)cc5)CC4)cc3)c2cc1OC + C=CC(=O)N1CCN(c2nc(OCC3CCCN3C)nc3c2CCN(c2cccc4cccc(C)c24)C3)CC1CC#N = 100
CC1OCC2(CCN(c3cnc(Sc4ccnc(N)c4Cl)c(N)n3)CC2)C1N (stereo not given) + CNCc1ccccc1-c1csc(C(C)Nc2nc(C)nc3cc(OC)c(OC)cc23)c1 = 83.7
COc1cc2nccc(Oc3ccc(NC(=O)C4(C(=O)Nc5ccc(F)cc5)CC4)cc3)c2cc1OC + C=CC(=O)N1CCN(c2nc(=O)n(-c3c(C)ccnc3C(C)C)c3nc(-c4c(O)cccc4F)c(F)cc23)C(C)C1 = 102

Ask: Look up viability, T/C of CC1(C)CCC(CN2CCN(c3ccc(C(=O)NS(=O)(=O)c4ccc(NCC5CCOCC5)c([N+](=O)[O-])c4)c(Oc4cnc5[nH]ccc5c4)c3)CC2)=C(c2ccc(Cl)cc2)C1 + CC1OCC2(CCN(c3cnc(Sc4ccnc(N)c4Cl)c(N)n3)CC2)C1N and report it.
Result: 100

Ask: Look up viability, T/C of CC1(C)CCC(CN2CCN(c3ccc(C(=O)NS(=O)(=O)c4ccc(NCC5CCOCC5)c([N+](=O)[O-])c4)c(Oc4cnc5[nH]ccc5c4)c3)CC2)=C(c2ccc(Cl)cc2)C1 + COc1cc2nc(C)nc(NC(C)c3cc(N)cc(C(F)(F)F)c3)c2cc1OC1CCOC1 and report it.
Result: 100

Ask: Look up viability, T/C of Cn1nccc1Nc1nccc(-c2cc3c(s2)C(C)(C)N(CCN2CCOCC2)C3=O)n1 + CC1OCC2(CCN(c3cnc(Sc4ccnc(N)c4Cl)c(N)n3)CC2)C1N and report it.
Result: 78.1

Ask: Look up viability, T/C of Cn1nccc1Nc1nccc(-c2cc3c(s2)C(C)(C)N(CCN2CCOCC2)C3=O)n1 + COc1cc2nc(C)nc(NC(C)c3cc(N)cc(C(F)(F)F)c3)c2cc1OC1CCOC1 and report it.
Result: 83.2

Ask: Look up viability, T/C of CC(C)n1nc(-c2ccc3oc(N)nc3c2)c2c(N)ncnc21 + CC1OCC2(CCN(c3cnc(Sc4ccnc(N)c4Cl)c(N)n3)CC2)C1N and report it.
Result: 43.2

====

Test system: CN0375-F725-PDC KRAS spheroid viability
ASSAY: Anticancer human tumor CN0375-F725-PDC cell line growth inhibition [KRAS2];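 note: spheroids exposed to agents for 7 days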
ASSAY_SETUP: second compound 0.1 µM; first compound 0.316 µM; stronger effect = lower value; spheroids with HUVEC and MSC
RESULT_TYPE: viability, T/C (%)
Write the value in % as a bare number.

CC(=O)OC12COC1CC(O)C1(C)C(=O)C(O)C3=C(C)C(OC(=O)C(O)C(NC(=O)OC(C)(C)C)c4ccccc4)CC(O)(C(OC(=O)c4ccccc4)C21)C3(C)C (centres undefined) + COc1cc2nc(C)nc(NC(C)c3cc(N)cc(C(F)(F)F)c3)c2cc1OC1CCOC1 = 84.4
CC(=O)OC12COC1CC(O)C1(C)C(=O)C(O)C3=C(C)C(OC(=O)C(O)C(NC(=O)OC(C)(C)C)c4ccccc4)CC(O)(C(OC(=O)c4ccccc4)C21)C3(C)C (centres undefined) + CNCc1ccccc1-c1csc(C(C)Nc2nc(C)nc3cc(OC)c(OC)cc23)c1 = 82.5
CC(C)NCC(C(=O)N1CCN(c2ncnc3c2C(C)CC3O)CC1)c1ccc(Cl)cc1 (centres undefined) + C=CC(=O)N1CCN(c2nc(OCC3CCCN3C)nc3c2CCN(c2cccc4cccc(C)c24)C3)CC1CC#N = 98
Cn1nccc1Nc1nccc(-c2cc3c(s2)C(C)(C)N(CCN2CCOCC2)C3=O)n1 + COc1cc2nc(C)nc(NC(C)c3cc(N)cc(C(F)(F)F)c3)c2cc1OC1CCOC1 = 68.7

Ask: Look up viability, T/C of CC1(C)CCC(CN2CCN(c3ccc(C(=O)NS(=O)(=O)c4ccc(NCC5CCOCC5)c([N+](=O)[O-])c4)c(Oc4cnc5[nH]ccc5c4)c3)CC2)=C(c2ccc(Cl)cc2)C1 + COc1cc2nc(C)nc(NC(C)c3cc(N)cc(C(F)(F)F)c3)c2cc1OC1CCOC1 and report it.
Result: 92.4

Ask: Look up viability, T/C of CCNC(=O)CC1N=C(c2ccc(Cl)cc2)c2cc(OC)ccc2-n2c(C)nnc21 (centres undefined) + C=CC(=O)N1CCN(c2nc(OCC3CCCN3C)nc3c2CCN(c2cccc4cccc(C)c24)C3)CC1CC#N and report it.
Result: 81.4

Ask: Look up viability, T/C of Cn1nccc1Nc1nccc(-c2cc3c(s2)C(C)(C)N(CCN2CCOCC2)C3=O)n1 + CNCc1ccccc1-c1csc(C(C)Nc2nc(C)nc3cc(OC)c(OC)cc23)c1 and report it.
Result: 71.1

Ask: Look up viability, T/C of COC(=O)c1ccc2c(C(=Nc3ccc(N(C)C(=O)CN4CCN(C)CC4)cc3)c3ccccc3)c(O)[nH]c2c1 + C=CC(=O)N1CCN(c2nc(=O)n(-c3c(C)ccnc3C(C)C)c3nc(-c4c(O)cccc4F)c(F)cc23)C(C)C1 and report it.
Result: 95.3

Ask: Look up viability, T/C of COc1cc2nccc(Oc3ccc(NC(=O)C4(C(=O)Nc5ccc(F)cc5)CC4)cc3)c2cc1OC + C=CC(=O)N1CCN(c2nc(OCC3CCCN3C)nc3c2CCN(c2cccc4cccc(C)c24)C3)CC1CC#N and report it.
Result: 92.6

Ask: Look up viability, T/C of COc1cc(Nc2ncc3c(n2)-c2ccc(Cl)cc2C(c2c(F)cccc2OC)=NC3)ccc1C(=O)O + C=CC(=O)N1CCN(c2nc(=O)n(-c3c(C)ccnc3C(C)C)c3nc(-c4c(O)cccc4F)c(F)cc23)C(C)C1 and report it.
Result: 89.3

Ask: Look up viability, T/C of O=C(c1cc(Cc2n[nH]c(=O)c3ccccc23)ccc1F)N1CCN(C(=O)C2CC2)CC1 + C=CC(=O)N1CCN(c2nc(OCC3CCCN3C)nc3c2CCN(c2cccc4cccc(C)c24)C3)CC1CC#N and report it.
Result: 101

Ask: Look up viability, T/C of CC(C)NCC(C(=O)N1CCN(c2ncnc3c2C(C)CC3O)CC1)c1ccc(Cl)cc1 (centres undefined) + CC1OCC2(CCN(c3cnc(Sc4ccnc(N)c4Cl)c(N)n3)CC2)C1N and report it.
Result: 94.4

Ask: Look up viability, T/C of CC1(C)CCC(CN2CCN(c3ccc(C(=O)NS(=O)(=O)c4ccc(NCC5CCOCC5)c([N+](=O)[O-])c4)c(Oc4cnc5[nH]ccc5c4)c3)CC2)=C(c2ccc(Cl)cc2)C1 + C=CC(=O)N1CCN(c2nc(OCC3CCCN3C)nc3c2CCN(c2cccc4cccc(C)c24)C3)CC1CC#N and report it.
Result: 102

Ask: Look up viability, T/C of CC1OCC2(CCN(c3cnc(Sc4ccnc(N)c4Cl)c(N)n3)CC2)C1N (centres undefined) + C=CC(=O)N1CCN(c2nc(=O)n(-c3c(C)ccnc3C(C)C)c3nc(-c4c(O)cccc4F)c(F)cc23)C(C)C1 and report it.
Result: 82.5

Ask: Look up viability, T/C of CCNC(=O)CC1N=C(c2ccc(Cl)cc2)c2cc(OC)ccc2-n2c(C)nnc21 (centres undefined) + COc1cc2nc(C)nc(NC(C)c3cc(N)cc(C(F)(F)F)c3)c2cc1OC1CCOC1 and report it.
Result: 77.7

Ask: Look up viability, T/C of Cn1nccc1Nc1nccc(-c2cc3c(s2)C(C)(C)N(CCN2CCOCC2)C3=O)n1 + C=CC(=O)N1CCN(c2nc(OCC3CCCN3C)nc3c2CCN(c2cccc4cccc(C)c24)C3)CC1CC#N and report it.
Result: 77.2

Ask: Look up viability, T/C of CC1COCCN1c1cc(-c2ccnn2C)c2ccnc(-c3ccn[nH]3)c2n1 (centres undefined) + C=CC(=O)N1CCN(c2nc(=O)n(-c3c(C)ccnc3C(C)C)c3nc(-c4c(O)cccc4F)c(F)cc23)C(C)C1 and report it.
Result: 81.6

Ask: Look up viability, T/C of CCNC(=O)CC1N=C(c2ccc(Cl)cc2)c2cc(OC)ccc2-n2c(C)nnc21 (centres undefined) + C=CC(=O)N1CCN(c2nc(=O)n(-c3c(C)ccnc3C(C)C)c3nc(-c4c(O)cccc4F)c(F)cc23)C(C)C1 and report it.
Result: 88.1

Ask: Look up viability, T/C of COc1cc(Nc2ncc3c(n2)-c2ccc(Cl)cc2C(c2c(F)cccc2OC)=NC3)ccc1C(=O)O + COc1cc2nc(C)nc(NC(C)c3cc(N)cc(C(F)(F)F)c3)c2cc1OC1CCOC1 and report it.
Result: 88.8
